# target-system: α2β2γ2S GABAA-R (Rattus norvegicus, UniProt P18508+P23576)
# Sequence (P23576 29-451): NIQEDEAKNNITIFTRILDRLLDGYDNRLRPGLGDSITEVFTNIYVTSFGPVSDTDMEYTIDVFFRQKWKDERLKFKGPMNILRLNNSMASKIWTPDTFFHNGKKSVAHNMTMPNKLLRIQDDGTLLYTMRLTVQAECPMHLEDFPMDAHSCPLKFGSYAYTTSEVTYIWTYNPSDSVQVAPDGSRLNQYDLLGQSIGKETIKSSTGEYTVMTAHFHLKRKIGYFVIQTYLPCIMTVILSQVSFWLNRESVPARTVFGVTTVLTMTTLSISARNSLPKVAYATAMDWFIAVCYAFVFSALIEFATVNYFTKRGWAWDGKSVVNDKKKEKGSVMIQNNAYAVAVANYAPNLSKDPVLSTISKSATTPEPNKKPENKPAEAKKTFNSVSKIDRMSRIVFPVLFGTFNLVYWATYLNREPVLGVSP
# Sequence (P63138 25-474 partner limits assumed): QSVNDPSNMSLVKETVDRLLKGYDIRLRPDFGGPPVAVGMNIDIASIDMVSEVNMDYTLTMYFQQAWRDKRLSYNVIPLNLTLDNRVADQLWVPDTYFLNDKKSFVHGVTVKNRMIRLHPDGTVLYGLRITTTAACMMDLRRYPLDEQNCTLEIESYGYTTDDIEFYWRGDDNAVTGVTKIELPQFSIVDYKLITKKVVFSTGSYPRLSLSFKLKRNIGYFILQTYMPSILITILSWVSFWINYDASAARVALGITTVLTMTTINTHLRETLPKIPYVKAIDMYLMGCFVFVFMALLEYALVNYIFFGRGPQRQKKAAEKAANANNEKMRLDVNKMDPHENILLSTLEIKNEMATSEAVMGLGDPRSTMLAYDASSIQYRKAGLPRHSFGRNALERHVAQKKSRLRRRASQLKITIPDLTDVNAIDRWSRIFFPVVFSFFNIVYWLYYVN
# Sequence (P18508 39-466): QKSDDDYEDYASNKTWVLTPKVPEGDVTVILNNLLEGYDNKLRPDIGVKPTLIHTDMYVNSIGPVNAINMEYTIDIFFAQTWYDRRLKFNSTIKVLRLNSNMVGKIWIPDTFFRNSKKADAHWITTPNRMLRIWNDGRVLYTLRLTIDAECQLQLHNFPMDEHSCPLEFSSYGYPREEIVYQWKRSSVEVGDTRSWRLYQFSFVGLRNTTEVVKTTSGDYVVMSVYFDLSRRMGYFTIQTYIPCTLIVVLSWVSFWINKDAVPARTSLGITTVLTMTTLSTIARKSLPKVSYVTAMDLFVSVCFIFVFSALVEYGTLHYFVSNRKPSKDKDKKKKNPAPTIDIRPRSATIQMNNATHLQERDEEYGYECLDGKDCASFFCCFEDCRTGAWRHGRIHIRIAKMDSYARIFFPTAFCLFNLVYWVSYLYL
# protocol: cell-based
# details: α2β2γ2S, GABA EC10, number of oocytes in parentheses; read-out: EC50
value-kind: pEC50
Value format note: pEC50 is -log10 of concentration (mol/L); just state the number.

1. O=C(c1ccccn1)c1cnn2c(-c3cc[n+]([O-])cc3)ccnc12
4.90

Quick check: pEC50 on α2β2γ2S GABAA-R (Rattus norvegicus, UniProt P18508+P23576), item O=C(c1ccccn1)c1cnn2c(-c3ccncc3)ccnc12 ?
5.04

----------
# target-system: α2β2γ3 GABAA-R (Rattus norvegicus, UniProt P23576+P28473)
# Construct: expressed in transfected cells; host or cells: HEK293 (CRL 1573), transient transfection
# Sequence (P23576 29-451): as the sequence (P23576 29-451) above
# Sequence (P63138 25-474 partner limits assumed): as the sequence (P63138 25-474 partner limits assumed) above
# Sequence (P28473 18-467): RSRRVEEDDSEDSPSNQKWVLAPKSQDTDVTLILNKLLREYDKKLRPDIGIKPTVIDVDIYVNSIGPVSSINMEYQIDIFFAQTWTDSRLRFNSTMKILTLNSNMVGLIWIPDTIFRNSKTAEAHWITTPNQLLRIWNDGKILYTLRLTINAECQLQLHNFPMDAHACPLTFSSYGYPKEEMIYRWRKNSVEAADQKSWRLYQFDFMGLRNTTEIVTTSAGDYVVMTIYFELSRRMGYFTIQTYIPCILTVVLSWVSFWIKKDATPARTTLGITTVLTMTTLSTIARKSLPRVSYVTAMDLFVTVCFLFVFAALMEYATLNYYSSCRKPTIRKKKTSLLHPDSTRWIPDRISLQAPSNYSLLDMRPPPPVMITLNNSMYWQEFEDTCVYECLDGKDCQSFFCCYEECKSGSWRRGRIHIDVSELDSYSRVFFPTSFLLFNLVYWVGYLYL
# protocol: biochemical
# Type: binding
# details: [3H]Ro15-1788 displacement, α2β2γ3, n = 3; read-out: IC50
value-kind: IC50 (µM)
State just the number; it will be interpreted in µM.

1) O=C(c1ccccn1)c1cnn2c(-c3cc[n+]([O-])cc3)ccnc12 [DOV 315,090]
20

Please turn your attention to the following entry.
What does the record list as IC50 for O=C(c1ccccn1)c1cnn2c(-c3ccncc3)ccnc12 [ocinaplon] ?
20
